Cited source: paper PMC9032424

Catalogue of fold increase of Kd against wild-type HisF readings, one per entry.
Target: T1, HisH (glutaminase subunit of Imidazole Glycerol Phosphate Synthase) from Thermotoga maritima (Thermotoga maritima, UniProt Q9X0C8 1-201)
T1 construct: HisH, Thermotoga maritima; cloned NdeI/XhoI into pET28a; No removal of the His-tag is described; source: bacteria transformed with pET28a, purified (70°C heat step, Ni-NTA agarose)
T1 sequence: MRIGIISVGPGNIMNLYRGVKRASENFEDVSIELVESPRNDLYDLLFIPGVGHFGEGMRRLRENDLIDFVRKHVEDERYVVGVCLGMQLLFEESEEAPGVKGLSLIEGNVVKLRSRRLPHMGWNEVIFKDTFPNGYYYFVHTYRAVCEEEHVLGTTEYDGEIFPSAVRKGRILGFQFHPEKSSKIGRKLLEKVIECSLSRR
Assay: other fluorescence titration; intrinsic tryptophan fluorescence; 15 uM HisH mixed with sub-stoichiometric HisF (1 to 5 uM); 20 mM potassium phosphate pH 7.5; excitation 295 nm, difference spectra read at 321 nm; fluorescence as proxy of concentrations; 30°C
Details: both partners purified

| binder | recorded.value |
| --- | --- |
| HisF K13A (enzyme, Thermotoga maritima, HisF, Thermotoga maritima, with the single mutation K13A; parent is the HisF of m1; probably as the His-tagged wild-type HisF; also called mutant HisF) MLAKRIIACLDVADGRVVKGTNFENLRDSGDPVELGKFYSEIGIDELVFLDITASVEKRKTMLELVEKVAEQIDIPFTVGGGIHDFETASELILRGADKVSINTAAVENPSLITQIAQTFGSQAVVVAIDAKRVDGEFMVFTYSGKKNTGILLRDWVVEVEKRGAGEILLTSIDRDGTKSGYDTEMIRFVRPLTTLPIIASGGAGKMEHFLEAFLAGADAALAASVFHFREIDVRELKEYLKKHGVNVRLEGL | ~3 fold |

Prompt line: Requested field: fold increase of Kd against wild-type HisF. Item: HisF F210A (enzyme, Thermotoga maritima, HisF, Thermotoga maritima, with the single mutation F210A; parent is the HisF of m1; probably as the His-tagged wild-type HisF; also called mutant HisF) MLAKRIIACLDVKDGRVVKGTNFENLRDSGDPVELGKFYSEIGIDELVFLDITASVEKRKTMLELVEKVAEQIDIPFTVGGGIHDFETASELILRGADKVSINTAAVENPSLITQIAQTFGSQAVVVAIDAKRVDGEFMVFTYSGKKNTGILLRDWVVEVEKRGAGEILLTSIDRDGTKSGYDTEMIRFVRPLTTLPIIASGGAGKMEHALEAFLAGADAALAASVFHFREIDVRELKEYLKKHGVNVRLEGL
Response line: ~3 fold

Prompt line: Requested field: fold increase of Kd against wild-type HisF. Item: HisF L169A (enzyme, Thermotoga maritima, HisF, Thermotoga maritima, with the single mutation L169A; parent is the HisF of m1; probably as the His-tagged wild-type HisF; also called mutant HisF) MLAKRIIACLDVKDGRVVKGTNFENLRDSGDPVELGKFYSEIGIDELVFLDITASVEKRKTMLELVEKVAEQIDIPFTVGGGIHDFETASELILRGADKVSINTAAVENPSLITQIAQTFGSQAVVVAIDAKRVDGEFMVFTYSGKKNTGILLRDWVVEVEKRGAGEIALTSIDRDGTKSGYDTEMIRFVRPLTTLPIIASGGAGKMEHFLEAFLAGADAALAASVFHFREIDVRELKEYLKKHGVNVRLEGL
Response line: ~3 fold

Prompt line: Requested field: fold increase of Kd against wild-type HisF. Item: HisF E167A (enzyme, Thermotoga maritima, HisF, Thermotoga maritima, with the single mutation E167A; parent is the HisF of m1; probably as the His-tagged wild-type HisF; also called mutant HisF) MLAKRIIACLDVKDGRVVKGTNFENLRDSGDPVELGKFYSEIGIDELVFLDITASVEKRKTMLELVEKVAEQIDIPFTVGGGIHDFETASELILRGADKVSINTAAVENPSLITQIAQTFGSQAVVVAIDAKRVDGEFMVFTYSGKKNTGILLRDWVVEVEKRGAGAILLTSIDRDGTKSGYDTEMIRFVRPLTTLPIIASGGAGKMEHFLEAFLAGADAALAASVFHFREIDVRELKEYLKKHGVNVRLEGL
Response line: 10 fold
